# System: SF-539 CNS
# TEST_PROTOCOL: NCI-60 one-dose screen, 48 h (100 = growth as untreated, 0 = no growth, -100 = all killed)
# EXPERIMENTAL_PARAMETERS: 10 µM unless noted
The panel holds about 83,000 compounds, 20% with a hit somewhere; the sample as a whole holds those more often. Active and inactive are the calls of the source. The calls were made as follows: active = growth percent below 10; inactive = the rest.
METRIC: growth

In the examples that follow, each entry is paired with its recorded growth.
{"COMPOUND": "c1cnc2[nH]cc(-c3csc(-c4cn(CCCN5CCCCC5)c5ccccc45)n3)c2c1", "RESULT_VALUE": "-48.5% (active)"}
{"COMPOUND": "C=CC(=O)N[C@H](Cc1ccc(-c2cc(Cl)cc(Cl)c2)cc1)[C@H](O)[C@@H](O)C(=O)O", "RESULT_VALUE": "99.6% (inactive)"}
{"COMPOUND": "COc1cc(NC(C)CN(CC(C)C)C(C)C)c2ncccc2c1 (stereo not given)", "RESULT_VALUE": "103% (inactive)"}
{"COMPOUND": "CN(C)CCCC1(c2ccc(F)cc2)OCc2cc(-c3ccc(C(F)(F)F)nc3)ccc21 (stereo not given)", "RESULT_VALUE": "80.8% (inactive)"}
{"COMPOUND": "Cn1cccc1/C=C1/SC(=S)N(CCc2ccc(O)cc2)C1=O", "RESULT_VALUE": "43.6% (inactive)"}
{"COMPOUND": "c1cc(N2CCCC2)c2nc(-c3[nH]ncc3Nc3ncnc4[nH]ccc34)[nH]c2c1", "RESULT_VALUE": "-54.3% (active)"}
{"COMPOUND": "Cn1cc(-c2nc(-c3cn(C)c4ncccc34)cs2)c2ccccc21", "RESULT_VALUE": "27.6% (inactive)"}
{"COMPOUND": "CCSc1ncnc2c1ncn2C1OC(CO)C(O)C1O (stereo not given)", "RESULT_VALUE": "25.3% (inactive)"}
{"COMPOUND": "COCCNC1=C(Cl)C(=O)c2ccccc2C1=O", "RESULT_VALUE": "136% (inactive)"}
{"COMPOUND": "COc1cc2[nH]c(C(=O)c3cc(OC)c(OC)c(OC)c3)c(N)c2cc1C#CC1CC1", "RESULT_VALUE": "-38.7% (active)"}

Problem: Which growth is listed for Nc1c(C(=O)Nc2cccc3ccccc23)sc2nc3c(cc12)CCCC3 ?
Result: 8.91% (active)

Problem: Which growth is listed for Cn1cc(-c2csc(-c3cn(CCNC(=O)OC(C)(C)C)c4ccc(F)cc34)n2)c2cccnc21 ?
Result: 81.7% (inactive)

Problem: Which growth is listed for COc1ccc(-c2cc(-c3cccs3)n(N=O)c(=O)c2C#N)cc1 ?
Result: 96.5% (inactive)

Problem: Which growth is listed for Nc1nc2c3ccncc3cc(-c3cccc(Cl)c3)c2c2cnccc12 ?
Result: 30.1% (inactive)

Problem: Which growth is listed for COc1ccc(CCN2C(=O)C(C)(C)SC2=S)cc1OC ?
Result: 105% (inactive)

Problem: Which growth is listed for N#C/C(=C\c1ccc(-c2ccccc2)o1)c1nc(-c2ccco2)cs1 ?
Result: 94.9% (inactive)

Problem: Which growth is listed for Fc1ccc2[nH]cc(-c3nc(-c4c[nH]c5ncccc45)cs3)c2c1 ?
Result: 27.3% (inactive)

Problem: Which growth is listed for O=C(N/N=C\c1c(O)ccc2ccccc12)C1CC1 ?
Result: 33.2% (inactive)

Problem: Which growth is listed for COc1cc(/C=C/c2cc(/C=C/c3ccc(O)c(OC)c3)n(-c3ccccc3)c(=O)n2)ccc1O ?
Result: 79.5% (inactive)

---

# System: NCI-H522 lung
# TEST_PROTOCOL: NCI-60 one-dose screen, 48 h
# EXPERIMENTAL_PARAMETERS: 10 µM unless noted
The panel holds about 83,000 compounds, 20% with a hit somewhere; the sample as a whole holds those more often. Calls of active or inactive are those of the source. Rule for the calls: active = growth percent below 10; inactive = the rest.
In this exercise, the only acceptable responses are Y (active), N (inactive)

Problem: State the result this test recorded for CC(C)/C=C/CC[C@](C)(O)[C@H]1CC[C@]2(C)[C@@H]1CC[C@@H]1[C@@]3(C)C/C(=C/c4cccc(C(F)(F)F)c4)C(=O)C(C)(C)[C@@H]3CC[C@]12C .
Result: N

Problem: State the result this test recorded for Cc1[c-]onc1C.Cc1[c-]onc1C.[Ag].[Ag].[NH-]S(=O)(=O)c1ccc(N=Nc2cc(N=Nc3ccc(S([NH-])(=O)=O)cc3)c3c(NC(=O)C(Cl)Cl)cccc3c2OC(=O)C(Cl)Cl)cc1 .
Result: Y

Problem: State the result this test recorded for COc1ccc(C2=NN(c3nc(-c4ccc(OC)cc4)c(C#N)c(=O)n3C)C(=O)CC2)cc1 .
Result: N

Problem: State the result this test recorded for CC1(C)CC[C@]2(C(=O)NCCNCCN)CC[C@]3(C)C(=CC[C@@H]4[C@@]5(C)CCC(=O)C(C)(C)[C@@H]5CC[C@]43C)[C@@H]2C1 .
Result: N

Problem: State the result this test recorded for c1ccc(CN2C(c3ccccc3)=Nc3ccccc3C2c2c[nH]c3ccccc23)cc1 (stereo not drawn) .
Result: N

Problem: State the result this test recorded for N#CC1=C(N)Oc2c(c(N)nn2-c2ccccc2)C1c1ccc(Cl)cc1Cl (stereo not drawn) .
Result: N

Problem: State the result this test recorded for Fc1ccc2nc(-c3cc(-c4ccc5c(c4)OCO5)n[nH]3)[nH]c2c1 .
Result: N

Problem: State the result this test recorded for CC(C)C[C@@H](NC(=O)[C@@H](Cc1ccccc1)NC(=O)c1cnccn1)B1O[C@H]2[C@H](O)[C@@H](C(=O)NCCCC[C@@H]3NC(=O)[C@@H](Cc4ccccc4)NC(=O)[C@H](CC(=O)O)NC(=O)CNC(=O)[C@H](CCCN=C(N)N)NC3=O)O[C@@H](CN)[C@H]2O1 .
Result: Y

Problem: State the result this test recorded for C/C(=C(/c1ccccc1)c1ccc(N2C(=O)c3cccc4c(NCc5ccccc5)ccc(c34)C2=O)cc1)c1ccccc1 .
Result: N

Problem: State the result this test recorded for Nc1nc2c3ccncc3cc(-c3cccc(Cl)c3)c2c2cnccc12 .
Result: N

Problem: State the result this test recorded for CCN1CCN(C(=O)[C@@]2(C)CC[C@]3(C)CC[C@]4(C)C(=CC(=O)[C@@H]5[C@@]6(C)CC[C@H](OCCC#N)C(C)(C)[C@@H]6CC[C@]54C)[C@@H]3C2)CC1 .
Result: N

Problem: State the result this test recorded for O=C1CCC/C=C\C[C@H]2C=C(Cl)C(=O)/C2=C/C[C@H](CCCCC(F)(F)F)OC(=O)CCC/C=C\C[C@H]2C=C(Cl)C(=O)/C2=C/C[C@H](CCCCC(F)(F)F)O1 .
Result: Y

---

# Test system: SK-MEL-2 melanoma
# TEST_PROTOCOL: NCI-60 one-dose screen, 48 h
# EXPERIMENTAL_PARAMETERS: 10 µM unless noted
Compounds without any hit were thinned out: in the full panel of roughly 83,000, 20% have a hit. Active and inactive are the calls of the source. Rule for the calls: active = growth percent below 10; inactive = the rest.
In this exercise, the only acceptable responses are Y (active), N (inactive)

Worked examples follow.
{"COMPOUND": "CCc1ccccc1NC(=O)c1sc2nc3c(cc2c1N)CCCC3", "ANSWER_LABEL": "N"}
{"COMPOUND": "COc1cccc(-c2nn(-c3ccccc3)cc2-c2ccnc(NCCCN)c2)c1", "ANSWER_LABEL": "N"}
{"COMPOUND": "CCC(CC)C(=O)OC(C)COc1ccc(C(C)(C)C)cc1 (stereo not given)", "ANSWER_LABEL": "N"}
{"COMPOUND": "CCN(CC)c1ccc(/C=C/c2cc(C)c3ccccc3n2)cc1", "ANSWER_LABEL": "N"}
{"COMPOUND": "COc1ccc(OC)c(-c2c(C#N)c(-c3ccco3)nc3c2c(-c2ccccc2)nn3-c2ccccc2)c1", "ANSWER_LABEL": "N"}
{"COMPOUND": "O=C(O)c1cccc2c1Cc1cc([N+](=O)[O-])ccc1-2", "ANSWER_LABEL": "N"}

Problem: State the result this test recorded for Cc1ccc(Sc2sc(-c3ccccc3)nc2[P+](c2ccccc2)(c2ccccc2)c2ccccc2)cc1 .
Result: Y

Problem: State the result this test recorded for CN(C)CCCC1(c2ccc(F)cc2)OCc2cc(-c3ccc(C(F)(F)F)nc3)ccc21 (stereo not given) .
Result: N

Problem: State the result this test recorded for C=C1C(=O)O[C@H]2[C@H]1CC/C(COC(=O)NCc1c[nH]c3ccccc13)=C\CC[C@@]1(C)O[C@@H]21 .
Result: N

Problem: State the result this test recorded for COc1ccc(/C=C/C(=O)NCCO)cc1 .
Result: N

---

# System: U251 CNS
# TEST_PROTOCOL: NCI-60 one-dose screen, 48 h (100 = growth as untreated, 0 = no growth, -100 = all killed)
# EXPERIMENTAL_PARAMETERS: 10 µM unless noted
This is part of a sample that, as a whole, favours compounds with a hit. Of some 83,000 tested, about 20% had one in any assay.
Use 70% as the dividing line for growth, with the line itself on the yes (1) side and lower values as no (0).

Worked examples follow.
{"MOLECULE": "O=S(=O)(NCCCNc1cc(-c2cn(-c3ccccc3)nc2-c2cccc(O)c2)ccn1)c1ccc(F)cc1", "ASSAYED_SYSTEM": "U251 CNS", "ANSWER_LABEL": "no (0)"}
{"MOLECULE": "COC(=O)[C@]12CC[C@@H](C(=O)/C=C/c3cccnc3)[C@@H]1[C@H]1CC[C@@H]3[C@@]4(C)C/C(=C/c5cccnc5)C(=O)C(C)(C)[C@@H]4CC[C@@]3(C)[C@]1(C)CC2", "ASSAYED_SYSTEM": "U251 CNS", "ANSWER_LABEL": "no (0)"}
{"MOLECULE": "CCc1cccc(CC)c1NC(=O)c1sc2nc3c(cc2c1N)CCCC3", "ASSAYED_SYSTEM": "U251 CNS", "ANSWER_LABEL": "yes (1)"}
{"MOLECULE": "O=P(O)(c1ccccc1)c1ccccc1I", "ASSAYED_SYSTEM": "U251 CNS", "ANSWER_LABEL": "yes (1)"}
{"MOLECULE": "N#CC1=C(N)Oc2ccc3ccccc3c2C1c1ccccc1Cl (stereo not drawn)", "ASSAYED_SYSTEM": "U251 CNS", "ANSWER_LABEL": "no (0)"}

Problem: Does the molecule CC(C)c1cc(C(=O)O)c(O)c(C(C)C)c1.CC(C)c1cc(C(=O)O)c(O)c(C(C)C)c1.[Mn] have recorded growth that is 70% or more?
Result: yes (1)

Problem: Does the molecule CCN1CCN(C(=O)[C@]23CCC(C)(C)C[C@H]2C2=CC[C@@H]4[C@@]5(C)CC/C(=N/O)C(C)(C)[C@@H]5CC[C@@]4(C)[C@]2(C)CC3)CC1 have recorded growth that is 70% or more?
Result: no (0)

Problem: Does the molecule C/C(=N\Nc1cc(C)c2ccccc2n1)c1ccccn1 have recorded growth that is 70% or more?
Result: no (0)
